testName: Plasma pharmacokinetics in healthy human subjects, alone or in combination
conditionNotes: human, plasma, oral, 100 mg, AUCtau, Mean (% CV), Compound A analyte; Compound A 100 mg BID alone, fed (N = 16)
metric: AUC (ng·h/mL)
Unit ng·h/mL implied. Number only.

Q: // returns reported AUC for input CC[C@H](Nc1ncnc2[nH]cnc12)c1nc2cccc(F)c2c(=O)n1-c1ccccc1
A: 8070

----------
testName: Plasma pharmacokinetics in healthy human subjects, alone or in combination
conditionNotes: human, plasma, oral, Cmax, Mean (% CV), Compound A analyte; Compound A 150 mg + Compound B 600 mg BID, fed (N = 6)
metric: Cmax (ng/mL)
The response must be a number in ng/mL with no trailing unit.

Q: Recorded Cmax of CC[C@H](Nc1ncnc2[nH]cnc12)c1nc2cccc(F)c2c(=O)n1-c1ccccc1 [Compound A] , please.
A: 2870
